tested on: SF-268 CNS; assay: NCI-60 one-dose screen, 48 h (100 = growth as untreated, 0 = no growth, -100 = all killed); settings: 10 µM unless noted
About 83,000 compounds went through this panel and 20% of them were active in at least one assay; those are over-represented in the sample as a whole. The source made the active and inactive calls. How the source made its calls: active means growth percent below 10; inactive means the rest.
measuredAttribute: growth

// query Can you look up growth on SF-268 CNS for `CCOc1ccc2nc(NC(=O)Nc3ccccc3C)sc2c1` ?
// result 78.6% (inactive)

// query So what growth did C#CCOc1ccc(C(Nc2cc(Cl)ccc2Cl)c2nnnn2C2CCCCC2)cc1 (stereo unspecified) get with SF-268 CNS?
// result 83.4% (inactive)

// query What growth appears in the records for this compound with SF-268 CNS? `O=C(C[n+]1ccnc2ccccc21)c1ccc(O)c(O)c1`
// result 85.7% (inactive)

// query Param readout= growth; system= SF-268 CNS; entry= `COc1cc([C@H]2OC[C@H]3[C@@H]2CO[C@@H]3c2ccc(O)c(OC)c2)ccc1O` ; returns value.
// result 91.1% (inactive)

// query Please tell me: growth of `CS(=O)(=O)c1ccc(-c2nn(-c3ccccc3)cc2/C=C/C(=O)c2ccc(Br)cc2)cc1` , system SF-268 CNS?
// result 99.4% (inactive)

// query Form field: growth recorded for CCC(C)[C@H]1OC(=O)[C@H](C(C)C)N(C)C(=O)[C@@H](C(C)C)OC(=O)[C@H](C(C)C)N(C)C(=O)[C@@H](C(C)CC)OC(=O)[C@H](C(C)C)N(C)C1=O (stereo partly specified) with SF-268 CNS (enter value)
// result 22.1% (inactive)

// query Query the reported growth for SF-268 CNS; item: `Nc1ccc(-c2nnc(SCc3ccc(O)c4ncccc34)n2-c2ccccc2)cc1`
// result 23.3% (inactive)

// query growth of `COc1ccc(NC2=C(Cl)C(=O)C(C)=C(C)C2=O)cc1` on SF-268 CNS?
// result 96% (inactive)

// query Write down the reported growth of `Cc1cc(=O)n2nc(-c3cn(C)c4ccc(Cl)cc34)sc2n1` , test system: SF-268 CNS.
// result 87% (inactive)

// query State its growth on SF-268 CNS: `CNC(=O)c1cc(Oc2ccc3nc(NC(=O)c4cccc(C(F)(F)F)c4)sc3c2)ccn1`
// result 98% (inactive)

Others:
// query growth of `CSc1ccc(/C(=N/N=C(N)N)c2ccccc2)cc1` on SF-268 CNS?
// result 53.6% (inactive)

// query Short answer please: growth, SF-268 CNS, entry `COc1cc(/C=N/n2cnc3oc(-c4ccccc4)cc3c2=N)cc(CN2CCN(C)CC2)c1O`
// result 93.6% (inactive)

====

system: K-562 leukemia; assay: NCI-60 one-dose screen, 48 h (100 = growth as untreated, 0 = no growth, -100 = all killed); details: 10 µM unless noted
Compounds without any hit were thinned out: in the full panel of roughly 83,000, 20% have a hit.
Binarize growth at 30%; below is 1.0, at or above is 0.0.

Before answering, review these 5 worked examples.
// query API: query returns whether the compound falls strictly under 30% in growth. Query: `O=C(Nc1ccc(F)cc1)c1cc(-c2ccc(F)cc2F)ccc1O`
// result 1.0

// query Check if growth falls below 30% for `IP(CCCSc1n(Cc2ccc3ccccc3c2)c(-c2ccccc2)c(-c2ccccc2)[n+]1Cc1ccc2ccccc2c1)(c1ccccc1)(c1ccccc1)c1ccccc1` .
// result 1.0

// query For this compound, is growth lower than 30%? `CC1=C2C(=C[C@@](C)(COS(N)(=O)=O)[C@@H]2O)C(=O)[C@](C)(O)C12CC2`
// result 0.0

// query Confirm or reject: growth of `O=C(O)c1ccc(-n2cc(CNc3ccc(Cl)cc3)c(-c3ccc(F)cc3)n2)cc1` lies strictly below 30%
// result 0.0

// query Record `Cc1ccc(Nc2ncnc3c2c(C)nn3-c2ccc([N+](=O)[O-])cc2)cc1` : is its growth strictly below 30%?
// result 0.0

---
// query Bench note: check whether `O=C(Cn1cc(CN2C(=O)c3ccc([N+](=O)[O-])cc3C2=O)nn1)Nc1ccc(F)cc1Cl` shows growth below 30%
// result 0.0

// query Strictly below 30%: is that where growth of `C#C[C@]1(O)CC[C@H]2[C@@H]3CC=C4c5sc(-c6ccc(OC)cc6)nc5CC[C@]4(C)[C@H]3CC[C@@]21C` sits?
// result 1.0

====

system: U251 CNS; experiment: NCI-60 one-dose screen, 48 h; details: 10 µM unless noted
This is part of a sample that, as a whole, favours compounds with a hit. Of some 83,000 tested, about 20% had one in any assay. Active and inactive are the calls of the source. The calls were made as follows: active = growth percent below 10; inactive = the rest.
Select the matching outcome among YES (active), NO (inactive)

// below: answered molecules
// query How was `COc1ccc([C@H]2[C@H](O)C(=O)N2c2cc(OC)c(OC)c(OC)c2)cc1O` classified in this test?
// result YES

// query What classification did `CCCCCCCCNC(=O)c1ccc(Cn2c(CCCC)nc3c(N)nc4ccccc4c32)cc1` end up with in this test?
// result YES

// query Just curious, what result did CN(C)C(=O)C1=NC(CO)C(=O)N(c2ccc(Cl)cc2)N1 (centres undefined) get here?
// result NO

// query How was `COc1ccc(-c2nnc(SCc3ccc(O)c4ncccc34)n2-c2ccccc2)cc1` classified in this test?
// result NO

// query Could you check what this test reported for `CCOP(=O)(OCC)OC[C@]12CCC(C)(C)C[C@H]1C1=CC[C@@H]3[C@@]4(C)C/C(=C\c5cccnc5)[C@H](OP(=O)(OCC)OCC)C(C)(C)[C@@H]4CC[C@@]3(C)[C@]1(C)CC2` ?
// result NO

// query Returns: the outcome recorded for `CCOC(=O)Nc1cccc(-n2cnc3cc(-c4ccc(O)cc4)ccc32)c1` in this assay.
// result NO

// query Each molecule tested received a call. Report the one for `COc1ccc2c(ccn2C(=O)N2c3ccccc3Sc3ccccc32)c1` .
// result NO

// query Which outcome was assigned to `O=C(/C=C1\C=CN(CCCCO)c2ccccc21)n1ccc2ccccc21` in this test?
// result NO

Next up:
// query Recorded call for `NS(=O)(=O)c1ccc(Nc2nc(N/N=C/c3ccc([N+](=O)[O-])cc3)nc(Nc3ccccc3)n2)cc1` ?
// result NO

====

tested on: HS 578T breast; experiment: NCI-60 one-dose screen, 48 h (100 = growth as untreated, 0 = no growth, -100 = all killed); conditions: 10 µM unless noted
About 83,000 compounds went through this panel and 20% of them were active in at least one assay; those are over-represented in the sample as a whole.
One threshold, 60%, splits the recorded growth values: lower ones are 1 (yes), equal or higher ones are 0 (no).

// query Given `CCNC(=O)Oc1ccc(/C(=C(/C)c2ccc(Cl)cc2)c2ccc(OCCN3CCCC3)cc2)cc1` , is recorded growth strictly lower than 60%?
// result 0 (no)

// query Lab note: growth threshold 60%. Does this compound come in strictly under it? `COc1cc(C(=O)c2cc(C(C)=O)c3c4ccccc4ccn23)cc(OC)c1OC`
// result 1 (yes)

// query Given the entry `NNC(=O)c1sc2nc(-c3cnccn3)cc(-c3cccs3)c2c1N` , would its reported growth be below 60%?
// result 0 (no)

// query Hi there! Is growth for `NC(=O)c1c(NC(=O)c2cccc(C(F)(F)F)c2F)sc2c1CCC(=O)C2` below 60%, do you know?
// result 1 (yes)

// query Please indicate whether the reported growth of `O=C(NCCCNc1cc(-c2cn(-c3ccccc3)nc2-c2cccc(O)c2)ccn1)Nc1cc(C(F)(F)F)cc(C(F)(F)F)c1` is strictly below 60%.
// result 1 (yes)

// query Field: below-cutoff. Rule: recorded growth strictly less than 60%. Subject: `NC(=O)C(=Cc1ccc(Cl)cc1)C(N)=O`
// result 0 (no)

// query hey, is growth for `O=c1[nH]c2cc(Cl)ccc2n1C1CCN(c2ccc3nnc(Cl)n3n2)CC1` lower than 60% or not?
// result 0 (no)

// query growth strictly < 60% for this compound? `CN1CCN(Cc2ccc(NC(=O)c3cncc(C#Cc4cnc5ccc(O[C@H]6CCOC6)nn45)c3)cc2C(F)(F)F)CC1`
// result 1 (yes)

// query For this compound, is growth lower than 60%? COc1ccc(N2C(=O)c3cc(OC)c(OC)cc3NC2SCc2ccccc2)cc1 (centres undefined)
// result 0 (no)

// query Say whether its growth is strictly beneath 60%. Entry: `CN(C)CCn1c2ccc(N)cc2c2nc3ccccc3nc21`
// result 0 (no)

// query Would you kindly verify if growth of CCCC(=O)NC(c1cccnc1)c1cc(Cl)c2cccnc2c1O (centres undefined) is strictly less than 60%?
// result 1 (yes)

// query Please check: growth for `CCNCc1c(-c2cccc(OC(F)(F)F)c2)[nH]c2ccc(N3CCCC3)cc2c1=O` , strictly under 60% or not?
// result 1 (yes)

// query Item `COc1cc(O)c2c(c1)[C@H]1O[C@@H]1C[C@H](O)[C@H](O)C(=O)/C=C\C[C@H](C)OC2=O` : growth beneath 60%, strictly?
// result 0 (no)

// query Confirm or reject: growth of `Nc1nc(-c2cccc([N+](=O)[O-])c2)c(N=Nc2cccc(Cl)c2)s1` lies strictly below 60%
// result 1 (yes)
